Test system: skin from a "hairless" mouse or human cadaver
Experiment: transdermal absorption (skin permeation) of nitroglycerin from polymer matrix dosage units, procedure of Keshary and Chien
Conditions: 1.59 mg/cm²
Assay Endpoint: Enhancing Factor

Compound: CCCCCCCC/C=C\CCCCCCCC(=O)OCCC [Enhancer D, Propyl oleate]
Subject Of Test: skin from a "hairless" mouse or human cadaver
Measured: 2.43
//
Compound: CCCCCCCCCCCCCC(=O)OCCC [Enhancer C, Propyl myristate]
Subject Of Test: skin from a "hairless" mouse or human cadaver
Measured: 1.92
//
Compound: CCCCCCCCCC[S+](C)[O-] (stereo not drawn) [Enhancer G, Decylmethyl sulfoxide]
Subject Of Test: skin from a "hairless" mouse or human cadaver
Measured: 1.87
//
Compound: CCCCCCCCCC(=O)O
Subject Of Test: skin from a "hairless" mouse or human cadaver
Measured: 4.11
//
Compound: CCCCCCCCCCCCCC(=O)N(C)C [Enhancer H, Myristic acid, N,N-dimethylamide]
Subject Of Test: skin from a "hairless" mouse or human cadaver
Measured: 2.0
//
Compound: CCCCCCCC/C=C\CCCCCCCCO
Subject Of Test: skin from a "hairless" mouse or human cadaver
Measured: 2.82
